Recorded values, source patent US6916905B2.

log10 of Ki reference
- SYSTEM: μ-opioid receptors (Rattus norvegicus)
- Construct: assayed with a rat brain synaptosomal preparation (P2); from tissue; host or cells: rat brain P2 synaptosomes
- Sequence (P33535 whole entry): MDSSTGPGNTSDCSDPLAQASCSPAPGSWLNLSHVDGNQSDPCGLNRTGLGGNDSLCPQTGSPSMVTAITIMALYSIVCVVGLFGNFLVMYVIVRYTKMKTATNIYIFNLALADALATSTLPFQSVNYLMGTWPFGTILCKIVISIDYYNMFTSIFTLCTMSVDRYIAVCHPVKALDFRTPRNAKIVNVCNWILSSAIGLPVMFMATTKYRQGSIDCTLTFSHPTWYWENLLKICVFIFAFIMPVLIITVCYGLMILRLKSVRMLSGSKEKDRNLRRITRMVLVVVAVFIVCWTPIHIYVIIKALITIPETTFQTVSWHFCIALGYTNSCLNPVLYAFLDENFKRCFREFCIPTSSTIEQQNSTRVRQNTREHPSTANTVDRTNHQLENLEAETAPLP
- ASSAY_NOTES: Rat brain synaptosome (P2) binding, [3H]DAGO (Example 47)
MEASURE_NAME: log10 of Ki (log10 of the value in nM)

GIVEN_SMILES	MEAS_VALUE
Cc1cc(O)cc(C)c1C[C@@H](C(=O)N1Cc2ccccc2C[C@H]1C(=O)NC12CC3CC(CC(C3)C1)C2)N(C)C	0.05
Cc1cc(O)cc(C)c1C[C@H](N)C(=O)N1Cc2ccccc2C[C@@H]1C(=O)NC12CC3CC(CC(C3)C1)C2	-0.59
Cc1cc(O)cc(C)c1C[C@@H](C(=O)N1Cc2ccccc2C[C@@H]1C(=O)NC12CC3CC(CC(C3)C1)C2)N(C)C	1.70
Cc1cc(O)cc(C)c1C[C@H](N)C(=O)N1Cc2ccccc2C[C@H]1C(=O)NC12CC3CC(CC(C3)C1)C2	-0.12
Cc1cc(O)cc(C)c1C[C@H](N)C(=O)N1Cc2ccccc2C[C@H]1C(=O)N[C@@H](C)C(=O)NC12CC3CC(CC(C3)C1)C2	0.40

* * *

- SYSTEM: μ-opioid receptors (Rattus norvegicus)
- Construct: assayed with a rat brain synaptosomal preparation (P2); from tissue; host or cells: rat brain P2 synaptosomes
- ASSAY_NOTES: Rat brain synaptosome (P2) binding, [3H]DAGO (Example 47)
- CONDITION_SET: rat brain synaptosomes (P2); mean ± SEM, n in parentheses; read-out: Kiμ (nM) [^3H]DAGO
Non-standard residues stand in square brackets, D forms with d. Residues, ends and D or L forms follow the SMILES beside them. *: point of attachment. Dmt = Cc1cc(O)cc(C)c1C[C@H](N)C(=O)O; Tic = O=C(O)[C@@H]1Cc2ccccc2CN1; NHtBu = CC(C)(C)N*
MEASURE_NAME: Ki (nM)

COMPOUND	MEAS_VALUE
Cc1cc(O)cc(C)c1C[C@@H](C(=O)N1Cc2ccccc2C[C@H]1C(=O)O)N1CCCCC1 [Compound 3, [des-NH2-α-piperidine-1-yl]-Dmt-Tic-OH]	2040
COC(=O)[C@H](C)NC(=O)[C@@H]1Cc2ccccc2CN1C(=O)[C@@H](N)Cc1c(C)cc(O)cc1C [Compound 19, H-Dmt-Tic-Ala-OMe] (H-[Dmt]-[Tic]-Ala-OMe)	11.3
Cc1cc(O)cc(C)c1C[C@H](N)C(=O)N1Cc2ccccc2C[C@H]1C(=O)N[C@@H](C)C(N)=O [H-Dmt-Tic-Ala-NH2, reference compound] (H-[Dmt]-[Tic]-Ala-NH2)	47
Cc1cc(O)cc(C)c1C[C@H](N)C(=O)N1Cc2ccccc2C[C@H]1C(=O)NC(C)(C)C [Compound 9, H-Dmt-Tic-NH-tBu] (H-[Dmt]-[Tic]-NHtBu)	5.96
Cc1cc(O)cc(C)c1C[C@H](N)C(=O)N1Cc2ccccc2C[C@H]1C(=O)Nc1nnn[nH]1	37

* * *

Ki reference
- SYSTEM: δ-opioid receptors (Rattus norvegicus, UniProt P33533)
- Construct: assayed with a rat brain synaptosomal preparation (P2); from tissue; host or cells: rat brain P2 synaptosomes
- Sequence (P33533 whole entry): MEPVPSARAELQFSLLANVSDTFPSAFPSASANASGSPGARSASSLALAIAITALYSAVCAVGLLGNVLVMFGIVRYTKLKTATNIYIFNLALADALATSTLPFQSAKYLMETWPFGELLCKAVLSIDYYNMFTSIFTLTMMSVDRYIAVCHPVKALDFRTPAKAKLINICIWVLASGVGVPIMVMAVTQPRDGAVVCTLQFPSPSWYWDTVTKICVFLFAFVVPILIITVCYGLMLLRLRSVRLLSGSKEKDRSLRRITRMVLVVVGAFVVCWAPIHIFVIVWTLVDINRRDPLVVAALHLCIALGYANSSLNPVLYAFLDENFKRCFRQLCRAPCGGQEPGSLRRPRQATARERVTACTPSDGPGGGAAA
- ASSAY_NOTES: Rat brain synaptosome (P2) binding, δ antagonist [3H]N,N(CH3)2-Dmt-Tic-OH (Example 47)
- CONDITION_SET: rat brain synaptosomes (P2); δ antagonist radioligand; mean ± SEM, n in parentheses; read-out: Kiδ(nM) [^3H]N,N(CH3)2-Dmt-Tic-OH
Non-standard residues stand in square brackets, D forms with d. Residues, ends and D or L forms follow the SMILES beside them. *: point of attachment. Dmt = Cc1cc(O)cc(C)c1C[C@H](N)C(=O)O; Tic = O=C(O)[C@@H]1Cc2ccccc2CN1; NHtBu = CC(C)(C)N*

COMPOUND	SYSTEM	Ki (nM)
COC(=O)[C@@H]1Cc2ccccc2CN1C(=O)[C@@H](N)Cc1c(C)cc(O)cc1C [Compound 8, H-Dmt-Tic-OMe] (H-[Dmt]-[Tic]-OMe)	δ-opioid receptors (Rattus norvegicus, UniProt P33533)	500
Cc1cc(O)cc(C)c1C[C@H](N)C(=O)N1Cc2ccccc2C[C@H]1C(=O)Nc1nnn[nH]1	δ-opioid receptors (Rattus norvegicus, UniProt P33533)	9.75
CNC(=O)[C@H](C)NC(=O)[C@@H]1Cc2ccccc2CN1C(=O)[C@@H](N)Cc1c(C)cc(O)cc1C [Compound 18, H-Dmt-Tic-Ala-NHMe] (H-[Dmt]-[Tic]-Ala-NHMe)	δ-opioid receptors (Rattus norvegicus, UniProt P33533)	0.12
Cc1cc(O)cc(C)c1C[C@H](N)C(=O)N1Cc2ccccc2C[C@H]1C(=O)N[C@@H](C)C(=O)NC(C)(C)C [Compound 20, H-Dmt-Tic-Ala-NH-tBu] (H-[Dmt]-[Tic]-Ala-NHtBu; N-terminus and C-terminus assumed)	δ-opioid receptors (Rattus norvegicus, UniProt P33533)	0.08
Cc1cc(O)cc(C)c1C[C@@H](C(=O)N1Cc2ccccc2C[C@H]1C(=O)O)N1CCCCC1 [Compound 3, [des-NH2-α-piperidine-1-yl]-Dmt-Tic-OH]	δ-opioid receptors (Rattus norvegicus, UniProt P33533)	0.74

* * *

pKi reference
- SYSTEM: δ-opioid receptors (Rattus norvegicus, UniProt P33533)
- Construct: assayed with a rat brain synaptosomal preparation (P2); from tissue; host or cells: rat brain P2 synaptosomes
- ASSAY_NOTES: Rat brain synaptosome (P2) binding, δ antagonist [3H]N,N(CH3)2-Dmt-Tic-OH (Example 47)
pKi: −log10 of the molar value.

MOLECULE	pKi
Cc1cc(O)cc(C)c1C[C@H](N)C(=O)N1Cc2ccccc2C[C@@H]1C(=O)NC12CC3CC(CC(C3)C1)C2 [Compound 12, H-Dmt-D-Tic-NH-1-adamantane]	7.15
Cc1cc(O)cc(C)c1C[C@H](N)C(=O)N1Cc2ccccc2C[C@H]1C(=O)NC12CC3CC(CC(C3)C1)C2 [Compound 11, H-Dmt-Tic-NH-1-adamantane]	9.00
Cc1cc(O)cc(C)c1C[C@@H](C(=O)N1Cc2ccccc2C[C@H]1C(=O)NC12CC3CC(CC(C3)C1)C2)N(C)C [Compound 15, N,N(Me)2-Dmt-Tic-NH-1-adamantane]	9.92
Cc1cc(O)cc(C)c1C[C@@H](C(=O)N1Cc2ccccc2C[C@@H]1C(=O)NC12CC3CC(CC(C3)C1)C2)N(C)C [Compound 16, N,N(Me)2-Dmt-D-Tic-NH-1-adamantane]	6.92

* * *

- SYSTEM: δ-opioid receptors (Rattus norvegicus)
- Construct: assayed with a rat brain synaptosomal preparation (P2); from tissue; host or cells: rat brain P2 synaptosomes
- ASSAY_NOTES: Rat brain synaptosome (P2) binding, agonist [3H]DPDPE (Example 47)
- CONDITION_SET: selectivity; Kiδ from agonist radioligand [3H]DPDPE
Non-standard residues stand in square brackets, D forms with d. Residues, ends and D or L forms follow the SMILES beside them. *: point of attachment. Dmt = Cc1cc(O)cc(C)c1C[C@H](N)C(=O)O; Tic = O=C(O)[C@@H]1Cc2ccccc2CN1; NHtBu = CC(C)(C)N*; NHNH2 = NN*
Param threshold (60) applies to Agonist K1μ/Kiδ; output 1 when value >= threshold, 0 when value < threshold.

MOLECULE	LABEL_VALUE
Cc1cc(O)cc(C)c1C[C@H](N)C(=O)N1Cc2ccccc2C[C@H]1C(=O)NN [Compound 6, H-Dmt-Tic-NHNH2] (H-[Dmt]-[Tic]-NHNH2)	1
Cc1cc(O)cc(C)c1C[C@H](N)C(=O)N1Cc2ccccc2C[C@H]1C(=O)Nc1nnn[nH]1 [Compound 10, H-Dmt-Tic-NH-tetrazole-5-yl]	0
Cc1cc(O)cc(C)c1CC(CN)C(=O)N1Cc2ccccc2C[C@H]1C(=O)O (stereo partly drawn) [Compound 2, H-αDmt-Tic-OH]	1
Cc1cc(O)cc(C)c1C[C@@H](C(=O)N1Cc2ccccc2C[C@H]1C(=O)O)N1CCCC1 [Compound 4, [des-NH2-α-pyrrolidine-1-yl]-Dmt-Tic-OH]	1
Cc1cc(O)cc(C)c1C[C@@H](C(=O)N1Cc2ccccc2C[C@@H]1C(=O)NC12CC3CC(CC(C3)C1)C2)N(C)C [Compound 16, N,N(Me)2-Dmt-D-Tic-NH-1-adamantane]	0
Cc1cc(O)cc(C)c1C[C@H](N)C(=O)N1Cc2ccccc2C[C@H]1C(=O)NC(C)(C)C [Compound 9, H-Dmt-Tic-NH-tBu] (H-[Dmt]-[Tic]-NHtBu)	0
Cc1cc(O)cc(C)c1C[C@@H](C(=O)N1Cc2ccccc2C[C@H]1C(=O)NC12CC3CC(CC(C3)C1)C2)N(C)C [Compound 15, N,N(Me)2-Dmt-Tic-NH-1-adamantane]	0
CNC(=O)[C@@H]1Cc2ccccc2CN1C(=O)[C@H](Cc1c(C)cc(O)cc1C)N(C)C [Compound 13, N,N(Me)2-Dmt-Tic-NHMe]	1
Cc1cc(O)cc(C)c1C[C@@H](C(=O)N1Cc2ccccc2C[C@H]1C(=O)O)N1CCCCC1 [Compound 3, [des-NH2-α-piperidine-1-yl]-Dmt-Tic-OH]	1
Cc1cc(O)cc(C)c1C[C@H](N)C(=O)N1Cc2ccccc2C[C@H]1C(=O)NC12CC3CC(CC(C3)C1)C2 [Compound 11, H-Dmt-Tic-NH-1-adamantane]	0
Cc1cc(O)cc(C)c1C[C@H](N)C(=O)N1Cc2ccccc2C[C@H]1CC(=O)O [Compound 1, H-Dmt-βTic-OH]	1
